assay.comment: 28-day toxicokinetic (TK) study in rats
Format: in vivo, rat
recorded.conditions: rat, in vivo, 40 mg/kg, female, read-out: AUC (area under the curve)
experimental.endpoint: AUC (ng·h/mL)
The answer is to be given in ng·h/mL; state only the numeric part.

So what's the measured AUC for this one? C=CC(=O)N1CC[C@@H](n2nc(-c3ccc(Oc4c(F)c(F)cc(F)c4F)cc3F)c3c(N)ncnc32)C1 [Compound 45]
17300

----------
assay.comment: 28-day toxicokinetic (TK) study in dogs
Type: in vivo, dog
recorded.conditions: dog, in vivo, 15 mg/kg, female
experimental.endpoint: AUC (ng·h/mL)
Note: unit ng·h/mL is implicit; provide only the numeric part.

Param item = C=CC(=O)N1CC[C@@H](n2nc(-c3ccc(Oc4c(F)c(F)cc(F)c4F)cc3F)c3c(N)ncnc32)C1 [Compound 45] ; retrieve measured AUC.
2930

----------
assay.comment: 28-day toxicokinetic (TK) study in dogs
Assay type: in vivo, dog
recorded.conditions: dog, in vivo, 15 mg/kg, male
experimental.endpoint: AUC
Could you write the number and then its unit?

Reported AUC, molecule C=CC(=O)N1CC[C@@H](n2nc(-c3ccc(Oc4c(F)c(F)cc(F)c4F)cc3F)c3c(N)ncnc32)C1 [Compound 45] : ____
3550 ng·h/mL

----------
assay.comment: 28-day toxicokinetic (TK) study in rats
Assay type: in vivo, rat
recorded.conditions: rat, in vivo, 40 mg/kg, male, read-out: AUC (area under the curve)
experimental.endpoint: AUC (ng·h/mL)
Express the result in ng·h/mL but write the number alone.

For the compound shown here, C=CC(=O)N1CC[C@@H](n2nc(-c3ccc(Oc4c(F)c(F)cc(F)c4F)cc3F)c3c(N)ncnc32)C1 , give the reported AUC.
13700
